- Tested on: Serratia marcescens expressing IMP-1 (CL5741)
- assay overview: Antibiotic potentiation activity: synergistic concentration (MITC95) with imipenem, OD600 growth
- Assay type: cell-based
- experimental context: concentration giving 95% inhibition of bacterial growth
Returns t if the recorded Serratia marcescens expressing IMP-1 (CL5741) MITC95 is greater than or equal to 20 µM, and f otherwise.

Please check the record NS(=O)(=O)c1cccc(-c2ncccn2)c1-c1nn[nH]n1 and state if its Serratia marcescens expressing IMP-1 (CL5741) MITC95 is at or above 20 µM. t

Please check the record NS(=O)(=O)c1cccc(C2CCCNC2)c1-c1nn[nH]n1 (stereo not drawn) and state if its Serratia marcescens expressing IMP-1 (CL5741) MITC95 is at or above 20 µM. t

Please check the record NS(=O)(=O)c1nccc(-c2ccc3c(c2)OCC(=O)N3)c1-c1nn[nH]n1 and state if its Serratia marcescens expressing IMP-1 (CL5741) MITC95 is at or above 20 µM. f

Please check the record NS(=O)(=O)c1cccc(-c2ccc3c(c2)C(=O)NC3)c1-c1nn[nH]n1 and state if its Serratia marcescens expressing IMP-1 (CL5741) MITC95 is at or above 20 µM. f

Please check the record Cc1sccc1-c1cccc(S(N)(=O)=O)c1-c1nn[nH]n1 and state if its Serratia marcescens expressing IMP-1 (CL5741) MITC95 is at or above 20 µM. f

Please check the record NS(=O)(=O)c1cccc(-c2ccc(-c3nnn[nH]3)cc2)c1-c1nn[nH]n1 and state if its Serratia marcescens expressing IMP-1 (CL5741) MITC95 is at or above 20 µM. f

Please check the record CC(=O)Nc1ccc(-c2ccnc(S(N)(=O)=O)c2-c2nn[nH]n2)cc1 and state if its Serratia marcescens expressing IMP-1 (CL5741) MITC95 is at or above 20 µM. f

Please check the record NS(=O)(=O)c1nccc(N2CCC(c3ccncc3)CC2)c1-c1nnn[nH]1 and state if its Serratia marcescens expressing IMP-1 (CL5741) MITC95 is at or above 20 µM. f

Please check the record CCOC(=O)CCn1cc(-c2cccc(S(N)(=O)=O)c2-c2nn[nH]n2)cn1 and state if its Serratia marcescens expressing IMP-1 (CL5741) MITC95 is at or above 20 µM. t

Please check the record NS(=O)(=O)c1nccc(-c2cnc3[nH]ccc3c2)c1-c1nn[nH]n1 and state if its Serratia marcescens expressing IMP-1 (CL5741) MITC95 is at or above 20 µM. f

Please check the record NC(=O)c1cccc(-c2ccnc(S(N)(=O)=O)c2-c2nn[nH]n2)c1 and state if its Serratia marcescens expressing IMP-1 (CL5741) MITC95 is at or above 20 µM. t

Please check the record NS(=O)(=O)c1cccc(C2=CCSCC2)c1-c1nn[nH]n1 and state if its Serratia marcescens expressing IMP-1 (CL5741) MITC95 is at or above 20 µM. t

Please check the record CC(C1CCN(c2ccnc(S(N)(=O)=O)c2-c2nnn[nH]2)CC1)N1CCOCC1 (stereo not drawn) and state if its Serratia marcescens expressing IMP-1 (CL5741) MITC95 is at or above 20 µM. t

Please check the record NS(=O)(=O)c1nccc(N2CCC(c3cnc4n3CCCC4)CC2)c1-c1nnn[nH]1 and state if its Serratia marcescens expressing IMP-1 (CL5741) MITC95 is at or above 20 µM. f

Please check the record NS(=O)(=O)c1cccc(-c2cccc(CO)c2)c1-c1nnn[nH]1 and state if its Serratia marcescens expressing IMP-1 (CL5741) MITC95 is at or above 20 µM. f

Please check the record NS(=O)(=O)c1cccc(-c2ccc3nonc3c2)c1-c1nnn[nH]1 and state if its Serratia marcescens expressing IMP-1 (CL5741) MITC95 is at or above 20 µM. f

Please check the record COc1ccc(-c2cccc(S(N)(=O)=O)c2-c2nn[nH]n2)cc1 and state if its Serratia marcescens expressing IMP-1 (CL5741) MITC95 is at or above 20 µM. f

Please check the record CNS(=O)(=O)c1ccc(-c2cccc(S(N)(=O)=O)c2-c2nn[nH]n2)cc1 and state if its Serratia marcescens expressing IMP-1 (CL5741) MITC95 is at or above 20 µM. f

Please check the record CN(C)S(=O)(=O)c1ccc(-c2cccc(S(N)(=O)=O)c2-c2nn[nH]n2)cc1 and state if its Serratia marcescens expressing IMP-1 (CL5741) MITC95 is at or above 20 µM. f

Please check the record N#CC1CC=C(c2cccc(S(N)(=O)=O)c2-c2nn[nH]n2)CC1 (stereo not drawn) and state if its Serratia marcescens expressing IMP-1 (CL5741) MITC95 is at or above 20 µM. t

Please check the record NS(=O)(=O)c1nccc(-c2ccc(C(=O)NC3CCOCC3)cc2)c1-c1nnn[nH]1 and state if its Serratia marcescens expressing IMP-1 (CL5741) MITC95 is at or above 20 µM. t

Please check the record Cn1nnc2ccc(-c3cccc(S(N)(=O)=O)c3-c3nn[nH]n3)cc21 and state if its Serratia marcescens expressing IMP-1 (CL5741) MITC95 is at or above 20 µM. t

Please check the record NS(=O)(=O)c1cccc(-c2ccc(-n3nccn3)cc2)c1-c1nn[nH]n1 and state if its Serratia marcescens expressing IMP-1 (CL5741) MITC95 is at or above 20 µM. f

Please check the record Nc1cc(-c2cccc(S(N)(=O)=O)c2-c2nnn[nH]2)cc(N)n1 and state if its Serratia marcescens expressing IMP-1 (CL5741) MITC95 is at or above 20 µM. t

Please check the record NS(=O)(=O)c1cccc(-c2ccc3ncnn3c2)c1-c1nnn[nH]1 and state if its Serratia marcescens expressing IMP-1 (CL5741) MITC95 is at or above 20 µM. f

Please check the record NS(=O)(=O)c1cccc(-c2ccc(-n3cccn3)nc2)c1-c1nnn[nH]1 and state if its Serratia marcescens expressing IMP-1 (CL5741) MITC95 is at or above 20 µM. f

Please check the record NS(=O)(=O)c1nccc(NCCc2ccccc2)c1-c1nnn[nH]1 and state if its Serratia marcescens expressing IMP-1 (CL5741) MITC95 is at or above 20 µM. t

Please check the record NS(=O)(=O)c1cccc(-c2ccnc(F)c2)c1-c1nn[nH]n1 and state if its Serratia marcescens expressing IMP-1 (CL5741) MITC95 is at or above 20 µM. t

Please check the record CN1CCC=C(c2cccc(S(N)(=O)=O)c2-c2nn[nH]n2)C1 and state if its Serratia marcescens expressing IMP-1 (CL5741) MITC95 is at or above 20 µM. t

Please check the record NS(=O)(=O)c1nccc(N2CCC(N3CCNCC3)CC2)c1-c1nnn[nH]1 and state if its Serratia marcescens expressing IMP-1 (CL5741) MITC95 is at or above 20 µM. t

Please check the record Cn1ncc2cc(-c3cccc(S(N)(=O)=O)c3-c3nn[nH]n3)ccc21 and state if its Serratia marcescens expressing IMP-1 (CL5741) MITC95 is at or above 20 µM. f

Please check the record NS(=O)(=O)c1cccc(-c2ccc(OCCN3CCCCC3)cc2)c1-c1nn[nH]n1 and state if its Serratia marcescens expressing IMP-1 (CL5741) MITC95 is at or above 20 µM. f

Please check the record NS(=O)(=O)c1cccc(CCc2ccccc2)c1-c1nnn[nH]1 and state if its Serratia marcescens expressing IMP-1 (CL5741) MITC95 is at or above 20 µM. f

Please check the record CS(=O)(=O)c1ccc(-c2cccc(S(N)(=O)=O)c2-c2nn[nH]n2)cc1 and state if its Serratia marcescens expressing IMP-1 (CL5741) MITC95 is at or above 20 µM. t

Please check the record NS(=O)(=O)c1cccc(-c2ccc(O)nc2)c1-c1nn[nH]n1 and state if its Serratia marcescens expressing IMP-1 (CL5741) MITC95 is at or above 20 µM. t

Please check the record NS(=O)(=O)c1cccc(-c2cnn3ncccc23)c1-c1nn[nH]n1 and state if its Serratia marcescens expressing IMP-1 (CL5741) MITC95 is at or above 20 µM. t
